Provide the recorded relative viability for the entries that follow.
System: SW1353
Assay: relative viability vs DMSO control (72 h) (fraction); higher = more viable cells
Conditions: 3.333 µM
Respond numerically, and do not add a unit to the figure.

Determine from records and report relative viability for `CN(C)C/C=C/C(=O)Nc1cc2c(Nc3ccc(F)c(Cl)c3)ncnc2cc1O[C@H]1CCOC1`
0.368

Determine from records and report relative viability for `CO[C@H]1C[C@@H]2CC[C@@H](C)[C@@](O)(O2)C(=O)C(=O)N2CCCC[C@H]2C(=O)O[C@H]([C@H](C)C[C@@H]2CC[C@@H](OC(=O)C(C)(CO)CO)[C@H](OC)C2)CC(=O)[C@H](C)/C=C(\C)[C@@H](O)[C@@H](OC)C(=O)[C@H](C)C[C@H](C)/C=C/C=C/C=C/1C`
0.602

Determine from records and report relative viability for `COc1cc(Nc2ncc3c(n2)-c2ccc(Cl)cc2C(c2c(F)cccc2OC)=NC3)ccc1C(=O)O`
0.817

Determine from records and report relative viability for `COC(=O)c1ccc2c(c1)NC(=O)/C2=C(\Nc1ccc(N(C)C(=O)CN2CCN(C)CC2)cc1)c1ccccc1`
0.947

Determine from records and report relative viability for `CNC(=O)c1cccc2cc(Oc3ccnc4cc(OCC5(N)CC5)c(OC)cc34)ccc12`
0.862

Determine from records and report relative viability for `CCS(=O)(=O)N1CC(CC#N)(n2cc(-c3ncnc4[nH]ccc34)cn2)C1`
0.915

---

Provide the recorded relative viability for the entries that follow.
Tested on: KHOS-NP
Assay: relative viability vs DMSO control (72 h) (fraction); higher = more viable cells
Conditions: 0.00017 µM
Respond numerically, and do not add a unit to the figure.

Determine from records and report relative viability for `COc1cc(N2CCC(N3CCN(C)CC3)CC2)ccc1Nc1ncc(Cl)c(Nc2ccccc2P(C)(C)=O)n1`
1.04

Determine from records and report relative viability for `COc1cc2ncnc(Nc3ccc(F)c(Cl)c3)c2cc1OCCCN1CCOCC1`
1.09

Determine from records and report relative viability for `Cn1cnc2c(F)c(Nc3ccc(Br)cc3Cl)c(C(=O)NOCCO)cc21`
1.06

Determine from records and report relative viability for `O=C(c1ccc(F)c(F)c1Nc1ccc(I)cc1F)N1CC(O)([C@@H]2CCCCN2)C1`
1.09

---

Tested on: KHOS-240S
Assay: relative viability vs DMSO control (72 h) (fraction); higher = more viable cells
Settings: 0.00051 µM
Provide the recorded relative viability for the entries that follow.
Respond numerically, and do not add a unit to the figure.

Determine from records and report relative viability for CN(C)C(=O)c1cc2cnc(Nc3ccc(N4CCNCC4)cn3)nc2n1C1CCCC1 [Ribociclib]
1.07

Determine from records and report relative viability for Cc1cc(F)c(C(=O)Nc2cccc(-c3nncn3C(C)C)n2)cc1-n1cnc(C2CC2)c1 [Selonsertib]
1.07

Determine from records and report relative viability for CCOc1cc2ncc(C#N)c(Nc3ccc(OCc4ccccn4)c(Cl)c3)c2cc1NC(=O)/C=C/CN(C)C [Neratinib]
1.06

Determine from records and report relative viability for COc1cc(N2CCC(N3CCN(C)CC3)CC2)ccc1Nc1ncc(Cl)c(Nc2ccccc2P(C)(C)=O)n1 [Brigatinib]
1.04

---

Tested on: KHOS-240S
Experiment: relative viability vs DMSO control (72 h) (fraction); higher = more viable cells
Conditions: 0.00017 µM
Provide the recorded relative viability for the entries that follow.
Respond numerically, and do not add a unit to the figure.

Determine from records and report relative viability for `CN(C)C/C=C/C(=O)Nc1cc2c(Nc3ccc(F)c(Cl)c3)ncnc2cc1O[C@H]1CCOC1`
1.06

Determine from records and report relative viability for `O=C(c1ccc(F)c(F)c1Nc1ccc(I)cc1F)N1CC(O)([C@@H]2CCCCN2)C1`
1.07

Determine from records and report relative viability for `CO[C@H]1C[C@@H]2CC[C@@H](C)[C@@](O)(O2)C(=O)C(=O)N2CCCC[C@H]2C(=O)O[C@H]([C@H](C)C[C@@H]2CC[C@@H](OC(=O)C(C)(CO)CO)[C@H](OC)C2)CC(=O)[C@H](C)/C=C(\C)[C@@H](O)[C@@H](OC)C(=O)[C@H](C)C[C@H](C)/C=C/C=C/C=C/1C`
1.01

Determine from records and report relative viability for `COc1cc2ncnc(Nc3ccc(F)c(Cl)c3)c2cc1OCCCN1CCOCC1`
1.01

Determine from records and report relative viability for `CCOc1cc2ncc(C#N)c(Nc3ccc(OCc4ccccn4)c(Cl)c3)c2cc1NC(=O)/C=C/CN(C)C`
1.03

Determine from records and report relative viability for `Cc1cc(F)c(C(=O)Nc2cccc(-c3nncn3C(C)C)n2)cc1-n1cnc(C2CC2)c1`
1.05

Determine from records and report relative viability for `Cc1c2oc3c(C)ccc(C(=O)N[C@@H]4C(=O)N[C@H](C(C)C)C(=O)N5CCC[C@H]5C(=O)N(C)CC(=O)N(C)[C@@H](C(C)C)C(=O)O[C@@H]4C)c3nc-2c(C(=O)N[C@@H]2C(=O)N[C@H](C(C)C)C(=O)N3CCC[C@H]3C(=O)N(C)CC(=O)N(C)[C@@H](C(C)C)C(=O)O[C@@H]2C)c(N)c1=O`
1.04
